B1: CPEB3 Ribozyme (parent)
chain: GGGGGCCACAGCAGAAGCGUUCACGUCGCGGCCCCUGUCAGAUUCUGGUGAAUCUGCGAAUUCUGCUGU

# Variants of: B1
# assayOverview: self-cleavage, relative activity (ratio to wild type); higher = more cleavage; co-transcriptional
measure: self-cleavage
Response field accepts a number only; no unit should be typed.

Consider the worked cases shown below.
C35G U44G : 0.373
G41A G68A : 0.979
A59U G68A : 0.957
G48C U64A : 0.864

Field request: self-cleavage | item: C24G G58U 0.387

Field request: self-cleavage | item: C35U U62C 0.752

Field request: self-cleavage | item: C45A A52C 0.908
